Target: DNA excision repair protein ERCC-1/DNA repair endonuclease XPF (Homo sapiens, UniProt P07992+Q92889)
Sequence (P07992 whole entry): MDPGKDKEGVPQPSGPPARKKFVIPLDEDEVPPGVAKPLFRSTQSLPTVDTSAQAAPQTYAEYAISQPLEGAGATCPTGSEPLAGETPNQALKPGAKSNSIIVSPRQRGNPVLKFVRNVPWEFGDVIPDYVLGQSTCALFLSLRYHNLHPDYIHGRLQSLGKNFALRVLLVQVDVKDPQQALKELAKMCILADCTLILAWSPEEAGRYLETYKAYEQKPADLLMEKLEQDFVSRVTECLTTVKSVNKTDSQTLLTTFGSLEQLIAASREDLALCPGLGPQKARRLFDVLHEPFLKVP
Sequence (Q92889 whole entry): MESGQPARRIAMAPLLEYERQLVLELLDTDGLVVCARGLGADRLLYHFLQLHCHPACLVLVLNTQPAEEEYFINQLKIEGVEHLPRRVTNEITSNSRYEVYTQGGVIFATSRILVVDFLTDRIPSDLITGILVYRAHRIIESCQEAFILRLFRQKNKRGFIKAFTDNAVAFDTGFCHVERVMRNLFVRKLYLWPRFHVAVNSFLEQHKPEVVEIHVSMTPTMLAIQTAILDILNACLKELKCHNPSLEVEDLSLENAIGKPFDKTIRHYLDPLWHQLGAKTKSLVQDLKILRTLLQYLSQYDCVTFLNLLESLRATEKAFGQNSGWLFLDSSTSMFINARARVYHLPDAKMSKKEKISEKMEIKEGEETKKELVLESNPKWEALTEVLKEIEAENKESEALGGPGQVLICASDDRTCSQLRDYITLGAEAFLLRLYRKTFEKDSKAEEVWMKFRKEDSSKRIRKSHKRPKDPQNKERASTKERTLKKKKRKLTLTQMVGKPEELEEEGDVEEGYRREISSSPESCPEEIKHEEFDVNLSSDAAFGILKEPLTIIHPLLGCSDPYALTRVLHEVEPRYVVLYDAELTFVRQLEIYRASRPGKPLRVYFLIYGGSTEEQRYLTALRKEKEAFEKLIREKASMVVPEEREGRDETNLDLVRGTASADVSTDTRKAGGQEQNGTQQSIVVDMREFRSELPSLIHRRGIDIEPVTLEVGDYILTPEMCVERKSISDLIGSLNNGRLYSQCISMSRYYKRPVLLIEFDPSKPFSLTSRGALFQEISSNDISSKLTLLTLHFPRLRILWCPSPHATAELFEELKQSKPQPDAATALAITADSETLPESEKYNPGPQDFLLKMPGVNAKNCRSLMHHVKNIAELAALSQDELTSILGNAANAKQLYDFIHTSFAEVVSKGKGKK
Assay: Inhibition of ERCC1-XPF (unknown origin) by high-throughput fluorescence based in-vitro endonuclease assay
Format: protein-complex assay
Consider the following compounds; for each one, report its IC50.
Respond numerically; units are µM and should not be typed.

(Q) Data request, read-out IC50, for O=C(Cc1ccc(Cl)cc1Cl)NCc1ccc(O)c(O)c1Cl
(A) 1.6

(Q) Would you mind doing CC(=O)Nc1ccc(-c2c[nH]c(=O)c(O)c2)cc1 as well?
(A) 13.5

(Q) Next compound up: Oc1ccc(Cc2nc(-c3ccc(Cl)cc3)no2)cc1O
(A) 12.2

(Q) And for O=C(CNc1ccccc1)Nc1ccc(O)c(O)c1 ?
(A) 1.6

(Q) Then Oc1ccc(-c2nc(Cc3ccc(Cl)cc3)no2)cc1O ?
(A) 7.8

(Q) Then what about the compound O=C(CCc1ccccc1)NCc1ccc(O)c(O)c1 ?
(A) 7.3

(Q) Also O=C(Cc1ccc(O)c(O)c1)NCc1ccc(Cl)cc1Cl ?
(A) 0.74

(Q) Lookup Cc1cccc(NCC(=O)N/N=C/c2cc(Br)c(O)c(O)c2Br)c1
(A) 33

(Q) Consider next the compound O=C(NCc1ccc(O)c(O)c1)c1ccccc1 in the same way.
(A) 24.5

(Q) Same read-out for O=C(Cc1ccc(N2CCOCC2)cc1)NCc1ccc(O)c(O)c1 ?
(A) 7.9

----------
Exercise: state measured log10(IC50) for each of the compounds provided.
target: DNA excision repair protein ERCC-1/DNA repair endonuclease XPF (Homo sapiens, UniProt P07992+Q92889); experiment: Inhibition of ERCC1-XPF (unknown origin) by high-throughput fluorescence based in-vitro endonuclease assay; assay type: protein-complex assay
// stored as log10 of IC50 expressed in µM

(Q) Name the recorded log10(IC50) for O=c1[nH]c(-c2ccc(F)cc2)ccc1O .
(A) 1.74

(Q) What about this compound? O=C(COc1ccccc1)NCc1ccc(O)c(O)c1
(A) 1.08

(Q) Next compound: O=C(Cc1ccccc1Cl)NCc1ccc(O)c(O)c1
(A) -0.10

(Q) Record: O=C1N(Cc2ccc(Cl)cc2)CCN1Cc1ccc(O)c(O)c1
(A) 0.61

(Q) Same read-out for COc1ccc(CC(=O)NCc2ccc(O)c(O)c2)cc1 ?
(A) 0.41

(Q) Continue with O=C(Cc1ccc(Cl)cc1Cl)NCc1cc(O)c(O)cc1F
(A) 0.04

----------
Biological target: DNA excision repair protein ERCC-1/DNA repair endonuclease XPF (Homo sapiens, UniProt P07992+Q92889)
Sequence (P07992 whole entry): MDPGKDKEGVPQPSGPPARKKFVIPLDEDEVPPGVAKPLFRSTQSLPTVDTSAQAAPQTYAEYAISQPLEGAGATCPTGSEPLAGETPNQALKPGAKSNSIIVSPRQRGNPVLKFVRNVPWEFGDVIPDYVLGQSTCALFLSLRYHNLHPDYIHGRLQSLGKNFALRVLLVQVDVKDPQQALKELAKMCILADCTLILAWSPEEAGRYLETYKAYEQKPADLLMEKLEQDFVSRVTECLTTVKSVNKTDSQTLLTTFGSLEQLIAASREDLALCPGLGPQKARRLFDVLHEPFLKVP
Sequence (Q92889 whole entry): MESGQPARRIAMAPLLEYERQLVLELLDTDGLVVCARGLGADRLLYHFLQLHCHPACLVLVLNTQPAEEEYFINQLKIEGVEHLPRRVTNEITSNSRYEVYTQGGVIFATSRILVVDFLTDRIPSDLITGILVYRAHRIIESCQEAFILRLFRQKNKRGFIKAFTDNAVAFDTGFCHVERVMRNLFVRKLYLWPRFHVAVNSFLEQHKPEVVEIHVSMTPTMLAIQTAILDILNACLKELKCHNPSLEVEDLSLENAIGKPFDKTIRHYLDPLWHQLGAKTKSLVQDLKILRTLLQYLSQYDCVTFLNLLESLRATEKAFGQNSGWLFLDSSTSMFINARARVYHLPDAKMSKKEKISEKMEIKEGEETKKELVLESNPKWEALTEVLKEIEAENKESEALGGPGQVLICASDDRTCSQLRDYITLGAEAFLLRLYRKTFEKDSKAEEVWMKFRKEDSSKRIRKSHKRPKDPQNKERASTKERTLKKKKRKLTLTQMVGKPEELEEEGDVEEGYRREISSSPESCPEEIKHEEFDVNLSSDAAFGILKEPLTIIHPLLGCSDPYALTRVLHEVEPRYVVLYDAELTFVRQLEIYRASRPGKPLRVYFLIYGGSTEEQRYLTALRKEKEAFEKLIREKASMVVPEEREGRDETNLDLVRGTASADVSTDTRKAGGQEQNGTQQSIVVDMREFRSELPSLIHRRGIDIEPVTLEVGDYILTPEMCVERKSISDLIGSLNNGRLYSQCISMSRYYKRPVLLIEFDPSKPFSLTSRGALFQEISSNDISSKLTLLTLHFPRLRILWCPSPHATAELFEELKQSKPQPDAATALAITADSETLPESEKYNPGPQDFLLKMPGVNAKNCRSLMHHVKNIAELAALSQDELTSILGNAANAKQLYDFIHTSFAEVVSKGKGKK
Experiment: Inhibition of ERCC1-XPF in human A375 cells assessed as reduction in direct nucleotide excision repair of UV-damaged pEGFP plasmid incubated for 234 hrs by recombinant GFP reporter assay
Assay type: cell-based, A-375
Conditions: in the assay text read “24 hrs” for “234 hrs”
Property label: pIC50
Note on units: pIC50 is unitless, being -log10 of a concentration expressed in mol/L.

(Q) Given O=C(Cc1ccc(Cl)cc1Cl)NCc1ccc(O)c(O)c1 , state its recorded pIC50.
(A) 4.81

----------
assay: Half life in mouse liver microsomes; format: ADME
Property label: half-life (min)
Return type: number; implicit unit min.

(Q) Consider the compound O=C(Cc1ccc(Cl)cc1Cl)NCc1ccc(O)c(O)c1 and give its measured half-life.
(A) 23
